Form field: SI (IC50 eqBChE/IC50 eeAChE) (one value per entry).
biological target: eeAChE (Electrophorus electricus, UniProt O42275); assay: AChE inhibition, modified Ellman's method; format: biochemical, Electrophorous electricus; conditions: selectivity index toward eeAChE
Sequence (O42275 24-633): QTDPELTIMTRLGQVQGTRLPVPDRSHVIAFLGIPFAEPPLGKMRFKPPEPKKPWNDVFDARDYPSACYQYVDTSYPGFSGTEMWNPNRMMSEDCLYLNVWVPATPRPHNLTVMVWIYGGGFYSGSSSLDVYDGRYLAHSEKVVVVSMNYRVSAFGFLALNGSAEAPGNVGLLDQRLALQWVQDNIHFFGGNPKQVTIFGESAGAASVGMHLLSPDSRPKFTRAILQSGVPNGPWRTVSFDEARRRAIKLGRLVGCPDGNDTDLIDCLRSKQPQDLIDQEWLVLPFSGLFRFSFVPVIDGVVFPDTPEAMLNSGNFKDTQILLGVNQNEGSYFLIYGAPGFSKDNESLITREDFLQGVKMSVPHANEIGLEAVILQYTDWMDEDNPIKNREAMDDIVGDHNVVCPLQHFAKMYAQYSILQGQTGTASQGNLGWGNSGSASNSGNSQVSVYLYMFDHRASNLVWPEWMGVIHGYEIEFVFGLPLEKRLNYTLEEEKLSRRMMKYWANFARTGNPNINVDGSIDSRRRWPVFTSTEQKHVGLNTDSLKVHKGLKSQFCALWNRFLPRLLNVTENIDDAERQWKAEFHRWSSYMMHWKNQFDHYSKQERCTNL
Would you mind answering with just the numeric figure?

*Q* Entry under review: COc1ccc(C(=O)CC2CC(=O)N(CCCSc3nnc(Cc4ccccc4Nc4c(Cl)cccc4Cl)n3-c3ccc(Cl)c(Cl)c3)C2=O)cc1 (centres unmarked) . Reported SI (IC50 eqBChE/IC50 eeAChE)?
*A* 601.2

*Q* Please do the same for O=C(CC1CC(=O)N(CCCSc2nnc(Cc3ccccc3Nc3c(Cl)cccc3Cl)n2-c2ccc(Cl)c(Cl)c2)C1=O)c1ccccc1 (centres unmarked) as well.
*A* 8.7

*Q* Please do the same for Sc1nnc(Cc2ccccc2Nc2c(Cl)cccc2Cl)n1-c1ccc(Cl)c(Cl)c1 as well.
*A* 21.8

*Q* Please do the same for NS(=O)(=O)c1ccc(NCSc2nnc(Cc3ccccc3Nc3c(Cl)cccc3Cl)n2-c2ccc(Cl)c(Cl)c2)cc1 as well.
*A* 27.2

*Q* Please do the same for NS(=O)(=O)c1ccc(N2N=C(c3ccc(NC(=O)Cc4ccccc4Nc4c(Cl)cccc4Cl)cc3)CC2c2ccc(Cl)cc2)cc1 (centres unmarked) as well.
*A* 30.33
